Source listed as patent US20260116991A1.

target: T1, murine GPC3-his protein (murine, UniProt Q8CFZ4 25-558, limits assumed); test: ELISA, murine GPC3-his coated; antibody 0.11 nM
T1 construct: Bought protein; also called mouse GPC3 protein; murine GPC3 protein; not shown: His tag
T1 sequence (Q8CFZ4 25-558 limits assumed): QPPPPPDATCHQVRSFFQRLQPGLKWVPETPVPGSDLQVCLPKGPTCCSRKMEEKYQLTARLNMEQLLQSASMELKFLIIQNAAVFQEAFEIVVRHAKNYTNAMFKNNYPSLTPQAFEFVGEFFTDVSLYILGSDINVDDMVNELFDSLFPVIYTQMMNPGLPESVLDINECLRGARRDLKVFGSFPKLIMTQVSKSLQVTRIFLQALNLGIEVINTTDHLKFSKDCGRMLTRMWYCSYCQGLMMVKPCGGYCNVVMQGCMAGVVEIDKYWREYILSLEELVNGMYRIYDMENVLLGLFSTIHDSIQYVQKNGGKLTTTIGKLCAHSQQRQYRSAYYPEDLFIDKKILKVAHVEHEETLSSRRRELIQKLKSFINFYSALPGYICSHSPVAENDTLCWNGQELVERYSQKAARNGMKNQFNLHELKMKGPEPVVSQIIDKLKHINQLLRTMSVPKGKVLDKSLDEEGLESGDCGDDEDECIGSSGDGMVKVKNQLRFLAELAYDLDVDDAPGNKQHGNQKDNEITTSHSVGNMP
Here, each record is paired with measured OD450 nm data.
Just the number.

Before answering, review these 2 worked examples.
1. hAb001H2L1b (antibody, human IgG1, V domains shown, Humanized F2.169.2, H2+L1b) VH: EVQLVESGGGLVQPGGSLRLSCAASGFSFNTNAMNWVRQAPGKGLEWVGRIRSKSNNYATYYADSVKDRFTISRDDSKSSLYLQMNSLKTEDTAVYYCVRDGYYVLFAYWGQGTLVTVSS VL: DIVMTQTPLSLPVTPGEPASISCRFSQSIVNSNANTYLEWFLQKPGQSPQLLIYKVSNRFSGVPDRFSGSGSGTDFTLKISRVEAEDVGVYYCFQGSHVPFTFGQGTKLEIK
2.06
2. hAb001H1L1 (antibody, human IgG1, V domains shown, Humanized F2.169.2, H1+L1) VH: EVQLVESGGGLVQPGGSLRLSCAASGFSFNTNAMNWVRQAPGKGLEWVGRIRSKSNNYATYYADSVKDRFTISRDDSKNSLYLQMNSLKTEDTAVYYCVRDGYYVLFAYWGQGTLVTVSS VL: DIVMTQTPLSLPVTPGEPASISCRFSQSIVNSNGNTYLEWFLQKPGQSPQLLIYKVSNRFSGVPDRFSGSGSGTDFTLKISRVEAEDVGVYYCFQGSHVPFTFGQGTKLEIK
2.31

// moving on: another record for OD450 nm
// hAb001H1aL1 (antibody, human IgG1, V domains shown, Humanized F2.169.2, H1a+L1) VH: EVQLVESGGGLVQPGGSLRLSCAASGFSFNTNAMNWVRQAPGKGLEWVGRIRSKSNNYATYYADSVKGRFTISRDDSKNSLYLQMNSLKTEDTAVYYCVRDGYYVLFAYWGQGTLVTVSS VL: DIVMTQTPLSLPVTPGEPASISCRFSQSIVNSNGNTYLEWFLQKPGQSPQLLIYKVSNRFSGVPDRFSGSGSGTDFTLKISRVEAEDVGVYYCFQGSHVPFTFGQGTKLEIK : OD450 nm value = 1.95
